binders and their reported Kd
- tested.system: T1, EsCas13d, nuclease-dead (Eubacterium siraeum, UniProt B0MS50, R295A;H300A;R849A;H854A)
- T1 sequence: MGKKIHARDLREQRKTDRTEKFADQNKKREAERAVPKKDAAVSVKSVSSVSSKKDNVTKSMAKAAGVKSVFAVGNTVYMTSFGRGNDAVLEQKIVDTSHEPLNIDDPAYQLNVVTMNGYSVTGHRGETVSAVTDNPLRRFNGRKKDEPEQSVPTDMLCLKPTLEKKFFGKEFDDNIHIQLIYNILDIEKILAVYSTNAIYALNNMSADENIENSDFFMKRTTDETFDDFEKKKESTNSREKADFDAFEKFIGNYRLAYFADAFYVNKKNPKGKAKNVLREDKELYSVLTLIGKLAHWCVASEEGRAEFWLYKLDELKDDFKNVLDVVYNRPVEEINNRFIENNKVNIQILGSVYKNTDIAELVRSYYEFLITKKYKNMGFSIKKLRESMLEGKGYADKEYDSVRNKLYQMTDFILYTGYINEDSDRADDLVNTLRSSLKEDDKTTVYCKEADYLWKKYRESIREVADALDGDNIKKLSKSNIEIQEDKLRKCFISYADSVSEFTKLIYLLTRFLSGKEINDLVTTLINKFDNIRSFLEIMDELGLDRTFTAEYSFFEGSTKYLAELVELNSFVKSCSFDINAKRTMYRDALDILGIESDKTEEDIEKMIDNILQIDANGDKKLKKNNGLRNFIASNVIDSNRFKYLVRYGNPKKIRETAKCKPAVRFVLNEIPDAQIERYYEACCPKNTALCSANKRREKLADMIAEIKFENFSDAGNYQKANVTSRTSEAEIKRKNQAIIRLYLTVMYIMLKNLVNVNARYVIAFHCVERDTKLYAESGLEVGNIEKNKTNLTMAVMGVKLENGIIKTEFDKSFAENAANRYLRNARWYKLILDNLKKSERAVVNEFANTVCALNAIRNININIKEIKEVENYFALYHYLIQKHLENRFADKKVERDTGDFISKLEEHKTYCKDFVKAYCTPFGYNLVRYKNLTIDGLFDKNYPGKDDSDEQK
- test: crRNA (strand 1, pre-loaded); Mg2+; 40 mM Tris-HCl pH 7.5, 150 mM NaCl, 6 mM MgCl2, 1 mM DTT, 0.1% Tween-20, 0.2 mg/ml BSA; 25 C; 10 min per concentration, then washed
- measurement.context: tags: His6-TwinStrep-SUMO cleaved; N-terminal SNAP kept (SNAP-Surface 488); label: 3' end held by stalled T7 RNA polymerase
Provide the reading as a plain figure in nM.

Use the examples below as a reference point.
>>> value_measured("target 3 A11C,G14A (mixed) RNA 1: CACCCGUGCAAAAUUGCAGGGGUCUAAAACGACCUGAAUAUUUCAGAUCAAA RNA 2: GGGAAUGGAUCCACAUCUACGAAUUCGUUUUUGAUCUAAACUAUUCAGGUCUGCAGAUCGGAAGAGCACACGU")
51
>>> value_measured("target 2 MT 5'PFS ACG 3'PFS CAU (mixed) RNA 1: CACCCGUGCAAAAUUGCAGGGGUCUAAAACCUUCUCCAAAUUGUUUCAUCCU RNA 2: GGGAAUGGAUCCACAUCUACGAAUUCACGAGGAUGAAACAAUUUGGAGAAGCAUAGAUCGGAAGAGCACACGU")
5.5
>>> value_measured("target 3 insG 3' of 7,insG 3' of 7 (mixed) RNA 1: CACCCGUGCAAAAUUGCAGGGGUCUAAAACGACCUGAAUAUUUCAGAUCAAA RNA 2: GGGAAUGGAUCCACAUCUACGAAUUCGUUUUUGAUCUGAAAUAUUGGCAGGUCUGCAGAUCGGAAGAGCACACGU")
41.5

Now examine the next entry.
If you can, please state the reported Kd value of target 1 insU 3' of 15,insC 3' of 1 (mixed) RNA 1: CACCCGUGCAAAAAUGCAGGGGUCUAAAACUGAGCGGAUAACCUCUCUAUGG RNA 2: GGGAAUGGAUCCACAUCUACGAAUUCGUACCAUAGAGUAGGUUAUCCGCUCACCCGAGAUCGGAAGAGCACACGU .
8.8
